- ASSAYED_TARGET: Fructose-bisphosphate aldolase (Mycobacterium tuberculosis (strain ATCC 25618 / H37Rv))
- ASSAY: Mtb FBA enzyme inhibitors, primary screen, biochemical, fluorescence, strain H37Rv (AID 588726)
- SETUP_CONDITIONS: purified M. tuberculosis FBA, fluorescence read-out, at 1 µM
About 8,200 (2.3%) of roughly 360,000 compounds were called active. No stated cut-off is given here; in the data, active means inhibition above about 27%; inactive means the rest. This excerpt belongs to a sample that is enriched for actives.
Could you please pick one outcome from this set? active, inactive

Solved cases below.
CCCCC(NS(=O)(=O)c1ccc(C)cc1)C(=O)Oc1ccc2c3c(c(=O)oc2c1)CCC3 (stereo unspecified) | active
CCC(C)(C)NC(=O)C(c1ccccn1)N(C(=O)c1csnn1)c1ccccc1 (stereo unspecified) | inactive
COc1ccc(-n2nc(C(=O)NCC(=O)Nc3cccc(C)n3)c3ccccc3c2=O)cc1 | inactive
CN(C(=O)c1ccccn1)c1nnc(-c2ccccn2)s1 | active
COC(=O)c1c(C)oc2ccc(N(C(=O)Oc3ccccc3)S(=O)(=O)c3ccccc3)cc12 | inactive

Tell me the recorded outcome of this test for CN(C(=O)C1CCOC1)c1nnc(-c2cccnc2)s1 (stereo unspecified) .
inactive

Tell me the recorded outcome of this test for `N#CC1(NC(=O)COc2ccc3oc4ccccc4c3c2)CCCCC1` .
inactive

Tell me the recorded outcome of this test for `COCCCNS(=O)(=O)c1cccc(S(=O)(=O)c2cccc(S(=O)(=O)NCCCOC)c2)c1` .
inactive

Tell me the recorded outcome of this test for `O=C1N[C@@H](Cc2ccccc2)C(=O)N2[C@@H]3N(S(=O)(=O)c4ccc(F)cc4)c4ccccc4[C@]3(Br)C[C@@H]12` .
inactive

Tell me the recorded outcome of this test for `CCCc1nc2oc3c(OCC)ncnc3c2c2c1COC(C)(C)C2` .
inactive

Tell me the recorded outcome of this test for `O=C(COc1ccc2ccccc2c1)N1CCN(C(=O)c2cccs2)CC1` .
inactive

Tell me the recorded outcome of this test for `CCOC(=O)c1c(C)oc2cc(Sc3ccccc3)c(O)c(O)c12` .
inactive

Tell me the recorded outcome of this test for `CCOC(=O)c1c(-c2ccccc2)oc2cc(Br)c(O)c(C=O)c12` .
inactive

Tell me the recorded outcome of this test for O=C(Nc1ccccc1C(=O)O)c1ccc(N2C(=O)C3CC=CCC3C2=O)cc1 (stereo unspecified) .
inactive

Tell me the recorded outcome of this test for `Cc1cc(C(=O)COc2ccc(Br)cc2F)c(C)n1C1CC1` .
inactive

Tell me the recorded outcome of this test for `CC/C(C)=N/Nc1nc2sc3c(c2c(=O)[nH]1)CC(C)(C)OC3` .
inactive

Tell me the recorded outcome of this test for `OC[C@@H]1CN(Cc2cccs2)C[C@H](n2cnc3c(NC4CCCC4)ncnc32)O1` .
inactive

Tell me the recorded outcome of this test for `OC[C@@H]1CN(Cc2cccs2)C[C@H](n2cnc3c(Nc4ccccc4)ncnc32)O1` .
active
